Test system: crabgrass
Test: Test B pre/postemergence crabgrass
Type: in vivo, Digitaria sanguinalis
Conditions: Preemergence, Rate 125 g/ha; scale 0 to 10, 0 is no effect, 10 is complete control
Record form. Attribute: Crabgrass plant response rating. Fill in for each entry.
Lab note: jot the number down without any unit.

Query: Test system crabgrass; read-out Crabgrass plant response rating; what value for CCCCn1c(=O)on(C(=O)N(c2ccc(Cl)cc2)C(C)C)c1=O ?
Reply: 10

Query: Item CCCCCCn1c(=O)on(C(=O)N(c2ccccc2)C(C)C)c1=O with crabgrass - Crabgrass plant response rating?
Reply: 9

Query: Look up Crabgrass plant response rating with crabgrass for this molecule: CC(C)N(C(=O)n1oc(=O)n(CC2=CCCCC2)c1=O)c1ccccc1
Reply: 4

Query: Reported Crabgrass plant response rating for crabgrass, given COCCOCn1c(=O)on(C(=O)N(c2ccccc2)C(C)C)c1=O ?
Reply: 8
